Target: Vasopressin V1b receptor (Homo sapiens)
Sequence (P47901 whole entry): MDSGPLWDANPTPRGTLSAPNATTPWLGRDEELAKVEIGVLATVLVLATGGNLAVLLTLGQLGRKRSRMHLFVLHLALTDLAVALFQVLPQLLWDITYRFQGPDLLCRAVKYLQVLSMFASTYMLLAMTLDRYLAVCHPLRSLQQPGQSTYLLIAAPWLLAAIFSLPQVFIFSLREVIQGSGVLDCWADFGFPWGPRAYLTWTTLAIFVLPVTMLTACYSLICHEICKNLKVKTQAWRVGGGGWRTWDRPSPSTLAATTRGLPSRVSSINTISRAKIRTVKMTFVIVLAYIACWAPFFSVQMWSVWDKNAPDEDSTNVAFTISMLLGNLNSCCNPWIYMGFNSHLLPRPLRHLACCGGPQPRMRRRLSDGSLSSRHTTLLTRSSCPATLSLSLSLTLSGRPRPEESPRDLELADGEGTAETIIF
Experiment: Agonist activity at human V1b receptor expressed in CHO cells assessed as calcium mobilization measured after 30 mins by Fluo-4-AM dye based FLIPR assay
Numbered stars: 1 amine (or outer) side, 2 acyl side, 3 side chain; on linkers, the order of the positions; unused ones are H or OH. Bridge positions count the residues as written; N and C are the ends. Square brackets hold non-standard residues; d marks the D form. Peptide text beside a SMILES is read from it. tBuAla = CC(C)(C)C[C@H](N)C(=O)O; Suc = O=C(CCC(=O)[*:2])[*:1]; Dap = NC[C@H](N)C(=O)O; Mpa = O=C(O)CCS
reported.property: EC50

Checklist item: EC50 tested on Vasopressin V1b receptor (Homo sapiens), entry CC(C)C[C@H](NC(=O)[C@@H]1CCCN1C(=O)[C@@H]1CSSCCC(=O)N[C@@H](Cc2ccc(O)cc2)C(=O)N[C@@H](Cc2ccccc2)C(=O)N[C@@H](CCC(N)=O)C(=O)N[C@@H](CC(N)=O)C(=O)N1)C(=O)NCC(N)=O ([Mpa]YFQNCPLG-NH2; disulfide 1-6) , value? 0.43 nM

What is its EC50 for Vasopressin V1b receptor (Homo sapiens)? Entry: CC[C@H](C)[C@@H]1NC(=O)[C@H](Cc2ccc(O)cc2)NC(=O)CCSSC[C@@H](C(=O)N2CCC[C@H]2C(=O)N[C@@H](CC(C)C)C(=O)NCC(N)=O)NC(=O)[C@H](Cc2ccccc2)NC(=O)[C@H](CCC(N)=O)NC1=O ([Mpa]YIQFCPLG-NH2; disulfide 1-6) > 100 nM

# query: EC50 | item CC[C@H](C)[C@@H]1NC(=O)[C@H](Cc2ccc(O)cc2)NC(=O)CCSSC[C@@H](C(=O)N2CCC[C@H]2C(=O)N[C@@H](CC(C)C)C(=O)NCC(N)=O)NC(=O)[C@H](CC(C)C)NC(=O)[C@H](CCC(N)=O)NC1=O ([Mpa]YIQLCPLG-NH2; disulfide 1-6) | system: Vasopressin V1b receptor (Homo sapiens) > 100 nM

Identify the measured EC50 of CC[C@H](C)[C@@H]1NC(=O)[C@H](Cc2ccc(O)cc2)NC(=O)CCC(=O)NC[C@@H](C(=O)N2CCC[C@H]2C(=O)N[C@@H](CC(C)(C)C)C(=O)NCC(N)=O)NC(=O)[C@H](CC(N)=O)NC(=O)[C@H](CCC(N)=O)NC1=O (YIQN[Dap]P[tBuAla]G-NH2; linker N-5 via Suc) for Vasopressin V1b receptor (Homo sapiens). > 100 nM
